# Lookup of reported pKi keyed by entry
target: Carbonic anhydrase 1 (Homo sapiens, UniProt P00915)
Sequence (P00915 whole entry): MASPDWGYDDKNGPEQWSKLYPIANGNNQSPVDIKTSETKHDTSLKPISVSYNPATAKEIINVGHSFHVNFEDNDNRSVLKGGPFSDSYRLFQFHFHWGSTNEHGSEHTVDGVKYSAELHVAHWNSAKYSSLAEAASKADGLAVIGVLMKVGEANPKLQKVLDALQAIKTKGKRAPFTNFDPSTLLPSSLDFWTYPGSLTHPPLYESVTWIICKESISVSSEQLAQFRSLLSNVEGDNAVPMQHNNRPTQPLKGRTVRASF
pKi: −log10 of the molar value.
Measured attribute: pKi

* NS(=O)(=O)c1ccc(CNCc2cc(=O)oc3cc(Cl)ccc23)cc1 | 5.97
* NS(=O)(=O)c1ccc(NCc2cc(=O)oc3cc(Cl)ccc23)c(I)c1 | 6.21
* CCN(Cc1cc(=O)oc2cc(Cl)ccc12)C1CC(C)S(=O)(=O)c2sc(S(N)(=O)=O)cc21 (configuration not stated) | 4.74
* NS(=O)(=O)c1cccc(NS(=O)(=O)c2ccc(NCc3cc(=O)oc4cc(Cl)ccc34)cc2)c1 | 7.44
* NS(=O)(=O)c1nnc(NS(=O)(=O)c2ccc(NCc3cc(=O)oc4cc(Cl)ccc34)cc2)s1 | 8.30
* NS(=O)(=O)c1nnc(NC(=O)CCNCc2cc(=O)oc3cc(Cl)ccc23)s1 | 7.92
* Cn1nc(S(N)(=O)=O)s/c1=N\Cc1cc(=O)oc2cc(Cl)ccc12 | 7.54
